system: cucumber (Cucumis sativus) plants; assay: Greenhouse trial: cucumber plant vigor in treated soil; details: 0.05%; 27-28 ml per 300 grams soil
Quantity kind: Root weight Trials 1 & 2

| Compound | Experimental value |
| --- | --- |
| COC(=O)c1cccc(C)c1 [M3MB, Methyl 3-methylbenzoate] | 3.3 ^a g |
| C=COC(=O)c1ccccc1 [VB, Vinyl benzoate] | 3.1 ^ab g |
| COC(=O)c1ccccc1 [MB, Methyl benzoate] | 3.0 ^ab g |
| CCOC(=O)c1ccccc1 [EB, Ethyl benzoate] | 3.2 ^ab g |

* * *

Test system: cucumber (Cucumis sativus) plants
Test: Greenhouse trial: cucumber plant vigor in treated soil
Details: 0.1%; 27 ml per 300 grams soil
Experimental: Greenhouse trials: Selected compounds and combinations were tested for effects on plant growth and on numbers of galls produced by M. incognita infecting cucumber (Cucumis sativus) plants in pots. […] Root and shoot measurements were recorded and root galls were counted. Statistical analyses: The data were analyzed as either a general linear model using JMP or a generalized linear model for the best distribution to fit the residual using Proc Glimmix (Sas Institute). […]

| Compound | Shoot fresh weight Trial 1 |
| --- | --- |
| COC(=O)c1ccccc1 [MB, Methyl benzoate] | 3.0 ^a g |
| C=COC(=O)c1ccccc1 [VB, Vinyl benzoate] | 3.0 ^a g |
| COC(=O)c1cccc(C)c1 [M3MB, Methyl 3-methylbenzoate] | 3.2 ^a g |
| CCOC(=O)c1ccccc1 [EB, Ethyl benzoate] | 3.0 ^a g |

Origin of values: patent US20220183287A1
